Hey, just so you know, these numbers are from ChEMBL document CHEMBL1157232.

Test: Cytotoxicity against human HCT5 cells
Type: functional, cell-based
quantity_name: IC50 (µM)
Unit µM implied. Number only.

Below, each entry is followed by its recorded IC50 result.
| compound | IC50, µM |
| --- | --- |
| CC(O)CC1CC(O)/C=C/C=C/C=C/CC(O)CC(O)C/C=C/C=C/C=C/C(=O)O1 (centres undefined) | 56.3 |
| COC1/C=C/C=C/C=C/CC(CC(C)O)OC(=O)/C=C/C=C/C=C/CC(O)CC(O)C1 (centres undefined) | 32.4 |
| CC(O)CC1C/C=C/C=C/C=C/C(O)CC(O)CC(O)C/C=C/C=C/C=C/C(=O)O1 (centres undefined) | 28.7 |

API: the following record is the query input.
Entry COC1/C=C/C=C/C=C/CC(O)CC(O)C/C=C/C=C/C=C/C(=O)OC(CC(C)O)C1 (centres undefined) , IC50 reported as 46.3

* * *

Listed next: entries and their corresponding IC50.
Test system: A549
Assay: Cytotoxicity against human A549 cells
Format: functional, cell-based
Entry rule: numbers only, all in µM.

Here are 3 compounds together with their reported answers.
| compound | unit_of_measure | IC50 |
| --- | --- | --- |
| COC1/C=C/C=C/C=C/CC(O)CC(O)C/C=C/C=C/C=C/C(=O)OC(CC(C)O)C1 (centres undefined) [WORTMANNILACTONE D] | µM | 116 |
| CC(O)CC1CC(O)/C=C/C=C/C=C/CC(O)CC(O)C/C=C/C=C/C=C/C(=O)O1 (centres undefined) [WORTMANNILACTONE C] | µM | 118 |
| CC(O)CC1C/C=C/C=C/C=C/C(O)CC(O)CC(O)C/C=C/C=C/C=C/C(=O)O1 (centres undefined) [WORTMANNILACTONE A] | µM | 76.5 |

Okay, next one:
Notebook: COC1/C=C/C=C/C=C/CC(CC(C)O)OC(=O)/C=C/C=C/C=C/CC(O)CC(O)C1 (centres undefined) [WORTMANNILACTONE B] , IC50 read as 104
